Data provenance: ChEMBL document CHEMBL3091432

# target: Proteasome Macropain subunit MB1 (Homo sapiens, UniProt P28074)
# Sequence (P28074 whole entry): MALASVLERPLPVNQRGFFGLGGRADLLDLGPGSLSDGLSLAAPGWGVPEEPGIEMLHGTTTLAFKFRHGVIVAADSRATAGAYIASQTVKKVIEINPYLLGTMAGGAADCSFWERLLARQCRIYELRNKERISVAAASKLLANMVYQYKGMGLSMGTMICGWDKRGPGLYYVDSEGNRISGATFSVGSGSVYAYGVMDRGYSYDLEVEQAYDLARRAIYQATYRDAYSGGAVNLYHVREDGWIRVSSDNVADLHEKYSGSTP
# procedure_details: Inhibition of chymotrypsin like activity of 20S proteasome in HEK293 cells after 24 hrs by microscopic analysis
measured_endpoint: EC50 (nM)

# smiles, unit_of_measure, recorded_value
records = [
    ("C[C@@]12OC(=O)[C@]1([C@@H](O)C1CCCCC1)NC(=O)[C@@H]2CCCl", "nM", 10),
    ("C[C@@]12OC(=O)[C@]1([C@@H](O)Cc1ccccc1)NC(=O)[C@@H]2CCCl", "nM", 332),
    ("C[C@@]12OC(=O)[C@]1([C@@H](O)C1CC1)NC(=O)[C@@H]2CCCl", "nM", 360),
    ("C[C@@]12OC(=O)[C@]1([C@@H](O)C1CCCCC1)NC(=O)[C@@H]2CCCCl", "nM", 90),
]
